Ratio: recorded values
# MEASUREMENT TARGET: RNA-directed RNA polymerase (Hepacivirus hominis) (UniProt O39930)
# Sequence (O39930 1-591): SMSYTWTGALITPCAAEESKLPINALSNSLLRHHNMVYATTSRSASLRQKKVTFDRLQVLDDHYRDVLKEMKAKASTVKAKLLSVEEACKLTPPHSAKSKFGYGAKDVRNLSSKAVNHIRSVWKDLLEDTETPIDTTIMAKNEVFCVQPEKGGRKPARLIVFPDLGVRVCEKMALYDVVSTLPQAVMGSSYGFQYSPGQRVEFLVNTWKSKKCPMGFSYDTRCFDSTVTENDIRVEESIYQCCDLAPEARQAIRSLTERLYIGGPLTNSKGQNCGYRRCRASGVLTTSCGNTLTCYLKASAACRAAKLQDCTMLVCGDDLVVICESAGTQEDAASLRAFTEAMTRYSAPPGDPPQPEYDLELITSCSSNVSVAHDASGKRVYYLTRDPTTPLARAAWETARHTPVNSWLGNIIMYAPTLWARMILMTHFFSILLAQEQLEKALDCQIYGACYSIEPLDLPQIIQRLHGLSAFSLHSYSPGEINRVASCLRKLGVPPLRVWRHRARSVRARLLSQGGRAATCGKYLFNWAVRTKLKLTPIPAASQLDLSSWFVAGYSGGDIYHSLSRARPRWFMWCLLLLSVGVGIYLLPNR
# EXPERIMENTAL DETAILS: Ratio for cellular to RNA dependent RNA polymerase Nonstructural protein 5B activity in Hepatitis C virus
Would you mind answering with just the numeric figure?

[
  {
    "SMILES TEXT": "CCc1ccccc1Oc1ccc(/C=C(\\NC(=O)CCC2CCCC2)C(=O)O)cc1",
    "VALUE MEASURED": 2
  },
  {
    "SMILES TEXT": "O=C(CCC1CCCC1)N/C(=C\\c1ccc(Oc2ccccc2Br)cc1)C(=O)O",
    "VALUE MEASURED": 2
  }
]

Now look at this one.
Request: State Ratio (RNA-directed RNA polymerase (Hepacivirus hominis) (UniProt O39930)) of "O=C(CCC1CCCC1)N/C(=C\c1ccc(Oc2ccccc2I)cc1)C(=O)O" .
Response: 2
